System: Plasmodium berghei
Experiment: Screen against P. berghei liver stage (PbLuc), transformed with Luciferase, at 2uM
Format: functional, HepG2
Conditions: tested at 2 uM
Hit rate of the full screen: of about 68,000 compounds, about 2,700 (4%) showed an effect of 50% or more. For the sample, strong results were picked, then their nearest neighbours and some compounds at random.
property: INHIBITION (%)
Give bare numbers, in %.

Example cases with answers are listed next.
Qu. Return reported INHIBITION; argument: "Cc1ncsc1CCC(=O)NC1CCN(Cc2cccs2)CC1"
Ans. 26.93

Qu. Further, for O=C(CN1CCCC1)N1CCCC(CNS(=O)(=O)Cc2ccccc2)C1 (centres undefined) ?
Ans. -4.77

Qu. And the next one, CCCC(=O)NC1CCCN(Cc2cccs2)C1 (centres undefined) ?
Ans. 53.65

Qu. Also, CC(NC(=O)CCn1cccn1)c1cn(-c2ccccc2)nn1 (centres undefined) please.
Ans. 2.26

Qu. What about CCNc1nc(C)c(C(=O)N2CCC(C(O)Cc3ccccc3)CC2)s1 (centres undefined) ?
Ans. 15.73

Please supply INHIBITION for each of the following items, keeping them in order.
1. CC1=C(CCN2C[C@H](O)[C@@H](N3CCOCC3)C2)C(C)(C)CCC1
2. Cc1ncc(CNC(C)(C)CO)c2cc(C(=O)c3ccc(Br)cc3)oc12

Ans.
1. -57.94
2. 61.06

Give me INHIBITION for each of these compounds, listed below.
1. CN(C)[C@@H]1CCN(C(=O)Cc2cccs2)[C@H]1Cc1ccncc1
2. COc1cccn(CC(=O)N(C)CCSC)c1=O
3. Cc1nn(C)c2cnn(Cc3ccc(C(=O)N4CCN(C)CC4)o3)c12

Ans.
1. -23.59
2. 21.97
3. 1.33

Batch lookup, INHIBITION per entry.
1. CC(C)c1nn(C)c(Cl)c1CNCc1ccc2c(c1)OCCO2
2. CC1(NC(=O)CC2CCc3ccccc32)CCOCC1 (centres undefined)

Ans.
[8.37, 60.15]

Batch request: INHIBITION per item, same order as input.
1. CN(C)C[C@@H]1CN(C(=O)c2cc(F)ccc2F)C[C@@H]1CO
2. CCOc1ncccc1CNCc1c(C)nn(C)c1N(C)C

Ans.
1: -0.3; 2: 47.87

###

System: Plasmodium berghei
Assay: Screen against P. berghei liver stage (PbLuc), transformed with Luciferase, at 2uM
Type: functional, HepG2
Conditions: tested at 2 uM
Out of some 68,000 compounds screened, about 2,700 (4%) showed an effect of 50% or more. For the sample, strong results were picked, then their nearest neighbours and some compounds at random.
property: INHIBITION (%)
Give bare numbers, in %.

Some molecules with recorded INHIBITION:
Qu. Entry COc1ccc(C2CCCN2S(=O)(=O)c2cc(F)ccc2F)cc1 (stereo not given) , system Plasmodium berghei: what INHIBITION was measured?
Ans. 7.24

Qu. Another molecule to look at: "O=C(c1ccoc1)N(Cc1ccncc1)C1CC1"
Ans. -37.38

Qu. Moving on to the next molecule: "COc1cc(C2(C(=O)NCCn3ccnc3)CCCC2)ccc1C"
Ans. -64.32

Each of the following entries comes with a recorded value; kindly state INHIBITION for each.
1. COc1cccc(CC(=O)N2CCc3ncnc(C)c3CC2)c1
2. CCOc1ccc(CN(C)C(=O)NC(C)c2nncn2C)cc1 (stereo not given)

Ans.
1. 19.49
2. -27.75
